tested on: co-culture model of human muscle cells and neurons from the spinal marrow of rat embryos; assay: Efficacy test: frequency of muscle contractions in a nerve-muscle co-culture model; assay type: cell-based, human (myoblasts), rat (embryo spinal explants); conditions: 0.5 mM; 1 minute after incubation; contractions counted for 30 seconds, compared to number before incubation; means of 3 measurements
Non-standard residues stand in square brackets, D forms with d. Residues, ends and D or L forms follow the SMILES beside them. *: point of attachment. Dap = NC[CH](N)C(=O)O; NHBn = c1ccc(CN*)cc1
Tag: yes (1) if measured Variation Δ [in %] of the number of muscle contractions (1 min) is not below 90%, no (0) if it is.

{"COMPOUND": "CC(N)C(=O)N1CCCC1C(=O)NC(CCCNC(=N)N)C(=O)NC(CCCNC(=N)N)C(=O)NCc1ccccc1 (stereo not shown) [4.3] (H-APRR-NHBn; configuration not given here)", "QUALITATIVE_LABEL": "no (0)"}
{"COMPOUND": "CC(N)C(=O)N1CCCC1C(=O)NC(CCCNC(=N)N)C(=O)NCc1ccccc1 (stereo not drawn) [4.2] (H-Ala-Pro-Arg-NHBn; configuration not given here)", "QUALITATIVE_LABEL": "yes (1)"}
{"COMPOUND": "CSCC[C@H](NC(=O)[C@H](CCC(=O)O)NC(=O)[C@H](CCC(=O)O)NC(C)=O)C(=O)N[C@@H](CCC(N)=O)C(=O)N[C@@H](CCCNC(=N)N)C(=O)N[C@@H](CCCNC(=N)N)C(N)=O [Product A, Ac-Glu-Glu-Met-Gln-Arg-Arg-NH2, reference compound] (Ac-EEMQRR-NH2)", "QUALITATIVE_LABEL": "yes (1)"}
{"COMPOUND": "COc1ccc(CNC(=O)C(CCCNC(=N)N)NC(=O)C2CCCN2C(=O)C(C)N)cc1 (stereo not shown)", "QUALITATIVE_LABEL": "no (0)"}
{"COMPOUND": "N=C(N)NCCCC(NC(=O)C1CCCN1C(=O)C(N)CN)C(=O)NCc1ccccc1 (stereo not drawn) [4.6] (H-[Dap]-Pro-Arg-NHBn; configuration not given here)", "QUALITATIVE_LABEL": "no (0)"}
{"COMPOUND": "C[C@H](N=C(N(C)C)N(C)C)C(=O)N1CCC[C@@H]1C(=O)N[C@@H](CCCNC(=N)N)C(=O)NCc1ccccc1", "QUALITATIVE_LABEL": "yes (1)"}

This collection of values is drawn from patent US7964630B2.
